src = paper PMC9102066

Listed here: items and their measured CLint ± SEM, hOCT2.
Target: human OCT2 (Homo sapiens, UniProt O15244)
Construct: expressed in transfected cells; host or cells: HEK293 (Flp-In system)
Sequence (O15244 1-555): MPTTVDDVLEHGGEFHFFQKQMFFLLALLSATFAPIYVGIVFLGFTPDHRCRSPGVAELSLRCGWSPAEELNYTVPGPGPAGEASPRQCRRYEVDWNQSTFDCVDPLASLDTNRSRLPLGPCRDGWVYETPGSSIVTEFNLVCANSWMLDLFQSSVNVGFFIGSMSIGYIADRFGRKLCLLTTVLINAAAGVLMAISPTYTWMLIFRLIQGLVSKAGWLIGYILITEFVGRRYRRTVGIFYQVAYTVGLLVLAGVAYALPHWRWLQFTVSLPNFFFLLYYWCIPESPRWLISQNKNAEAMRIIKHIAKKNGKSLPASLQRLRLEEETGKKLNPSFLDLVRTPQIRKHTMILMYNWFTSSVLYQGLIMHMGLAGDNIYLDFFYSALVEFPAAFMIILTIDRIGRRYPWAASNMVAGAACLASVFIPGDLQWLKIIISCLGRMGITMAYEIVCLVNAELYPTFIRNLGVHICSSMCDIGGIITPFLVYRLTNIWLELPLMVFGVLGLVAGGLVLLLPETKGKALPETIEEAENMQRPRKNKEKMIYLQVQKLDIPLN
Test: Uptake in HEK293 cells stably overexpressing human OCT2
Format: in vitro ADME
Conditions: intrinsic clearance = vmax divided by KM for each experiment
Description: Cells were passaged twice a week. Intracellular substrate concentrations were quantified using LC-MS/MS.
Where a name gives a salt, the structure may show the parent alone.
ENDPOINT_LABEL: CLint ± SEM, hOCT2

{"COMPOUND": "CC(Cc1ccc(O)cc1)NCC(O)c1cc(O)cc(O)c1 (stereo not shown) [Fenoterol, Fenoterol hydrochloride]", "TEST_TARGET": "human OCT2 (Homo sapiens, UniProt O15244)", "RECORDED_MEASUREMENT": "28.0 ± 0.95 µL × min^−1 × mg Protein^−1"}
{"COMPOUND": "CN(C)C(=N)N=C(N)N [Metformin, metformin hydrochloride]", "TEST_TARGET": "human OCT2 (Homo sapiens, UniProt O15244)", "RECORDED_MEASUREMENT": "39.9 ± 5.27 µL × min^−1 × mg Protein^−1"}
{"COMPOUND": "CCCC[N+]1(C)[C@@H]2C[C@@H](OC(=O)[C@H](CO)c3ccccc3)C[C@H]1[C@@H]1O[C@@H]12 (stereo partly shown) [Butylscopolamine, butylscopolamine bromide]", "TEST_TARGET": "human OCT2 (Homo sapiens, UniProt O15244)", "RECORDED_MEASUREMENT": "81.6 ± 2.16 µL × min^−1 × mg Protein^−1"}
{"COMPOUND": "O=C(O[C@H]1C[C@H]2CC[C@@H](C1)[N+]21CCCC1)C(O)(c1ccccc1)c1ccccc1 [Trospium, trospium chloride]", "TEST_TARGET": "human OCT2 (Homo sapiens, UniProt O15244)", "RECORDED_MEASUREMENT": "278 ± 40.5 µL × min^−1 × mg Protein^−1"}
